Field: log10 IC50. Provide a value for each of the molecules that follow.
Molecular target: NMB receptor (Rattus norvegicus)
Sequence (P24053 1-390): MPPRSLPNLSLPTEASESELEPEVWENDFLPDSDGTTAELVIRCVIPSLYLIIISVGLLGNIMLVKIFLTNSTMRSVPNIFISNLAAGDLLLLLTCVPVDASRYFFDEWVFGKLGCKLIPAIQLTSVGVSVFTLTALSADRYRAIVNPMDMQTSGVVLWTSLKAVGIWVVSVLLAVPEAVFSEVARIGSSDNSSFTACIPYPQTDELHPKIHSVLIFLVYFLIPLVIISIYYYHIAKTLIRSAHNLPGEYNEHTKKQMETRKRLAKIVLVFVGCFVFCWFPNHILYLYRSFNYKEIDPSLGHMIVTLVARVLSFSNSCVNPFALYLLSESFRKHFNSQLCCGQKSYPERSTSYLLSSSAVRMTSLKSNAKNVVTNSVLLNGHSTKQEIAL
Assay: [3H]inositol phosphates in NMB-R transfected cells (alone or NMB-stimulated)
Format: cell-based
Design: a full length NMB-preferring bombesin receptor clone generated from rat esophagus; expressed in transfected cells
Details: NMB-R transfected cells; 3 nM NMB; read-out: IC50 NMB-stimulated [3H]IP, NMB Receptor, Transfected Cells
Where a SMILES comes first, the peptide text is derived from it. Bridges are numbered along the chain shown (N, C = ends). [ ]: non-standard residue; d: D form. 2Nal = N[C@@H](Cc1ccc2ccccc2c1)C(=O)O; d2Nal = N[C@H](Cc1ccc2ccccc2c1)C(=O)O
The figures below represent log10 of IC50, where IC50 is stated in µM.

Ask: Read off the recorded log10 IC50 for NCCCC[C@@H]1NC(=O)[C@@H](Cc2c[nH]c3ccccc23)NC(=O)[C@H](Cc2ccc(O)cc2)NC(=O)[C@@H](NC(=O)[C@H](N)Cc2ccc3ccccc3c2)CSSC[C@@H](C(=O)N[C@@H](Cc2ccc3ccccc3c2)C(N)=O)NC(=O)[C@H](Cc2ccccc2)NC1=O [Analog #13] (H-[d2Nal]CY[dW]KFC[2Nal]-NH2; disulfide 2-7)
Result: 0.07

Ask: Read off the recorded log10 IC50 for CC(C)[C@@H]1NC(=O)[C@H](CCCCN)NC(=O)[C@@H](Cc2c[nH]c3ccccc23)NC(=O)[C@H](Cc2ccc(O)cc2)NC(=O)[C@@H](NC(=O)[C@H](N)Cc2ccccc2)CSSC[C@@H](C(=O)N[C@@H](Cc2ccc3ccccc3c2)C(N)=O)NC1=O [Analog #4] (H-[dF]CY[dW]KVC[2Nal]-NH2; disulfide 2-7)
Result: 0.58

Ask: Read off the recorded log10 IC50 for C[C@@H](O)[C@@H]1NC(=O)[C@H](CCCCN)NC(=O)[C@@H](Cc2c[nH]c3ccccc23)NC(=O)[C@H](Cc2ccc(O)cc2)NC(=O)[C@@H](NC(=O)[C@H](N)Cc2ccccc2)CSSC[C@@H](C(=O)N[C@@H](Cc2ccc3ccccc3c2)C(N)=O)NC1=O [Analog #7] (H-[dF]CY[dW]KTC[2Nal]-NH2; disulfide 2-7)
Result: 1.56

Ask: Read off the recorded log10 IC50 for CC(C)[C@@H]1NC(=O)[C@H](CCCCN)NC(=O)[C@@H](Cc2c[nH]c3ccccc23)NC(=O)[C@H](Cc2ccc(O)cc2)NC(=O)[C@@H](NC(=O)[C@H](N)Cc2c[nH]c3ccccc23)CSSC[C@@H](C(=O)N[C@@H](Cc2ccc3ccccc3c2)C(N)=O)NC1=O [Analog #12] (H-[dW]CY[dW]KVC[2Nal]-NH2; disulfide 2-7)
Result: 0.67

Ask: Read off the recorded log10 IC50 for CC(C)[C@@H]1NC(=O)[C@H](CCCCN)NC(=O)[C@@H](Cc2c[nH]c3ccccc23)NC(=O)[C@H](Cc2ccc(O)cc2)NC(=O)[C@@H](NC(=O)[C@@H](N)Cc2ccc3ccccc3c2)CSSC[C@@H](C(=O)N[C@H](Cc2ccc3ccccc3c2)C(N)=O)NC1=O [Analog #9] (H-[2Nal]CY[dW]KVC[d2Nal]-NH2; disulfide 2-7)
Result: 0.64

Ask: Read off the recorded log10 IC50 for CC(C)[C@@H]1NC(=O)[C@H](CCCCN)NC(=O)[C@@H](Cc2ccc3ccccc3c2)NC(=O)[C@H](Cc2ccc(O)cc2)NC(=O)[C@@H](NC(=O)[C@H](N)Cc2ccc3ccccc3c2)CSSC[C@@H](C(=O)N[C@@H](Cc2ccc3ccccc3c2)C(N)=O)NC1=O [Analog #17] (H-[d2Nal]CY[d2Nal]KVC[2Nal]-NH2; disulfide 2-7)
Result: 0.25

---

target: GRP receptor (Rattus norvegicus); experiment: Amylase release from rat pancreatic acini (alone or Bn-stimulated); assay type: cell-based; parameters: from tissue; host or cells: dispersed pancreatic acini; settings: analog 10 μM alone, control 4 ± 1
Sequence (P52500 whole entry): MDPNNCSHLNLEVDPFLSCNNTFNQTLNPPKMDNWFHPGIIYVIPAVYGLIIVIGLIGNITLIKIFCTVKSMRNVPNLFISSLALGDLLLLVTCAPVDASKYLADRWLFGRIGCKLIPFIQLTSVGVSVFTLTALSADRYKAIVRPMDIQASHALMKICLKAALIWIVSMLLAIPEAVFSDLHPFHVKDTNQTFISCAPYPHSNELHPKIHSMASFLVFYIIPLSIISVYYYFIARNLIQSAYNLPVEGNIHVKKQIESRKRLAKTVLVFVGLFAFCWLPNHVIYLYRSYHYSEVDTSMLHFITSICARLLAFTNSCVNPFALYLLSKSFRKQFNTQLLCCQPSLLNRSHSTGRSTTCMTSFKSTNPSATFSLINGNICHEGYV
Where a SMILES comes first, the peptide text is derived from it. Bridges are numbered along the chain shown (N, C = ends). [ ]: non-standard residue; d: D form. 2Nal = N[C@@H](Cc1ccc2ccccc2c1)C(=O)O; d2Nal = N[C@H](Cc1ccc2ccccc2c1)C(=O)O; Lys(Et2) = CCN(CC)CCCC[C@H](N)C(=O)O; Lys(iPr) = CC(C)NCCCC[C@H](N)C(=O)O
assay endpoint: Amylase Release, analog Alone (10 μM) (% total)
Kindly provide the numeric value in % total only, without the unit symbol.

Ask: Read off the recorded Amylase Release, analog Alone (10 μM) for CCN(CC)CCCC[C@@H]1NC(=O)[C@@H](Cc2c[nH]c3ccccc23)NC(=O)[C@H](Cc2ccc(O)cc2)NC(=O)[C@@H](NC(=O)[C@H](N)Cc2ccccc2)CSSC[C@@H](C(=O)N[C@@H](Cc2ccc3ccccc3c2)C(N)=O)NC(=O)[C@H]([C@@H](C)O)NC1=O [Analog #16] (H-[dF]CY[dW][Lys(Et2)]TC[2Nal]-NH2; disulfide 2-7)
Result: 5

Ask: Read off the recorded Amylase Release, analog Alone (10 μM) for CC(C)NCCCC[C@@H]1NC(=O)[C@@H](Cc2c[nH]c3ccccc23)NC(=O)[C@H](Cc2ccc(O)cc2)NC(=O)[C@@H](NC(=O)[C@H](N)Cc2ccccc2)CSSC[C@@H](C(=O)N[C@@H](Cc2ccc3ccccc3c2)C(N)=O)NC(=O)[C@H]([C@@H](C)O)NC1=O [Analog #15] (H-[dF]CY[dW][Lys(iPr)]TC[2Nal]-NH2; disulfide 2-7)
Result: 4

Ask: Read off the recorded Amylase Release, analog Alone (10 μM) for NCCCC[C@@H]1NC(=O)[C@@H](Cc2c[nH]c3ccccc23)NC(=O)[C@H](Cc2ccc(O)cc2)NC(=O)[C@@H](NC(=O)[C@H](N)Cc2ccc3ccccc3c2)CSSC[C@@H](C(=O)N[C@@H](Cc2ccc3ccccc3c2)C(N)=O)NC(=O)[C@H](Cc2ccc3ccccc3c2)NC1=O [Analog #3] (H-[d2Nal]CY[dW]K[2Nal]C[2Nal]-NH2; disulfide 2-7)
Result: 3

Ask: Read off the recorded Amylase Release, analog Alone (10 μM) for NCCCC[C@@H]1NC(=O)[C@@H](Cc2c[nH]c3ccccc23)NC(=O)[C@H](Cc2ccc(O)cc2)NC(=O)[C@@H](NC(=O)[C@H](N)Cc2ccc3ccccc3c2)CSSC[C@@H](C(=O)N[C@@H](Cc2ccc3ccccc3c2)C(N)=O)NC(=O)[C@H](Cc2ccccc2)NC1=O [Analog #13] (H-[d2Nal]CY[dW]KFC[2Nal]-NH2; disulfide 2-7)
Result: 3

Ask: Read off the recorded Amylase Release, analog Alone (10 μM) for CC(C)[C@@H]1NC(=O)[C@H](CCCCN)NC(=O)[C@@H](Cc2c[nH]c3ccccc23)NC(=O)[C@H](Cc2ccc(O)cc2)NC(=O)[C@@H](NC(=O)[C@H](N)Cc2c[nH]c3ccccc23)CSSC[C@@H](C(=O)N[C@@H](Cc2ccc3ccccc3c2)C(N)=O)NC1=O [Analog #12] (H-[dW]CY[dW]KVC[2Nal]-NH2; disulfide 2-7)
Result: 3

Ask: Read off the recorded Amylase Release, analog Alone (10 μM) for C[C@H](N)C(=O)NCC(=O)N[C@H]1CSSC[C@@H](C(=O)O)NC(=O)[C@H](CO)NC(=O)[C@H]([C@@H](C)O)NC(=O)[C@H](Cc2ccccc2)NC(=O)[C@H]([C@@H](C)O)NC(=O)[C@H](CCCCN)NC(=O)[C@H](Cc2c[nH]c3ccccc23)NC(=O)[C@H](Cc2ccccc2)NC(=O)[C@H](Cc2ccccc2)NC(=O)[C@H](CC(N)=O)NC(=O)[C@H](CCCCN)NC1=O [SS-14, somatostatin-14, reference compound]
Result: 3

Ask: Read off the recorded Amylase Release, analog Alone (10 μM) for CC(C)[C@@H]1NC(=O)[C@H](CCCCN)NC(=O)[C@@H](Cc2c[nH]c3ccccc23)NC(=O)[C@H](Cc2ccc(O)cc2)NC(=O)[C@@H](NC(=O)[C@H](N)Cc2ccccc2)CSSC[C@@H](C(=O)N[C@@H](Cc2ccc3ccccc3c2)C(N)=O)NC1=O [Analog #4] (H-[dF]CY[dW]KVC[2Nal]-NH2; disulfide 2-7)
Result: 4

Ask: Read off the recorded Amylase Release, analog Alone (10 μM) for CC(C)[C@@H]1NC(=O)[C@H](CCCCN)NC(=O)[C@@H](Cc2c[nH]c3ccccc23)NC(=O)[C@H](Cc2ccc(O)cc2)NC(=O)[C@@H](NC(=O)[C@H](N)Cc2ccc3ccccc3c2)CSSC[C@@H](C(=O)N[C@H](C(N)=O)[C@@H](C)O)NC1=O
Result: 3

Ask: Read off the recorded Amylase Release, analog Alone (10 μM) for CC(C)[C@@H]1NC(=O)[C@H](CCCCN)NC(=O)[C@@H](Cc2c[nH]c3ccccc23)NC(=O)[C@H](Cc2ccc(O)cc2)NC(=O)[C@@H](NC(=O)[C@H](N)Cc2ccc3ccccc3c2)CSSC[C@@H](C(=O)N[C@@H](Cc2ccc3ccccc3c2)C(N)=O)NC1=O [Analog #1] (H-[d2Nal]CY[dW]KVC[2Nal]-NH2; disulfide 2-7)
Result: 5

meta.source: patent US5462926A
